- subject_of_test: T1, biotinylated WNV NS5 PBM peptide (West Nile virus, also: biotinyl group, end not given here)
- T1 construct: bait of the holdup assay; also called 13-mer peptide; source: synthetic peptide (solid phase, Fmoc; Proteogenix)
- T1 peptide: RYEDTTLVEDTVL
- assay_protocol: holdup assay (automated high-throughput chromatography); biotinylated NS5 PBM peptide as bait against 259 human PDZ domains expressed in E. coli; read-out binding intensity (BI), mean of replicates; BI threshold 0.2 for a significant interaction
Ends that are not written are not given here.
measure: BI (holdup binding intensity)
Numbers only.

>>> experimental_value("Zona Occludens 3; Tight Junction Protein 3, PDZ domain 2 (holdup construct) (domain or fragment, human, UniProt O95049 195-272, looked up, also called TJP3_2; source: E. coli, PDZome V.2 library, high-throughput expression) SVLVKRRDSEEFGVKLGSQIFIKHITDSGLAARHRGLQEGDLILQINGVSSQNLSLNDTRRLIEKSEGKLSLLVLRDR")
0.23

Below are some binders; for each one, tell me its BI (holdup binding intensity).
1. Membrane-associated guanylate kinase, WW and PDZ domain-containing protein 1, PDZ domain 2 (holdup construct) (domain or fragment, human, UniProt Q96QZ7 472-554, looked up, also called MAGI1_2; source: E. coli, PDZome V.2 library, high-throughput expression) HTKLRKSSRGFGFTVVGGDEPDEFLQIKSLVLDGPAALDGKMETGDVIVSVNDTCVLGHTHAQVVKIFQSIPIGASVDLELCR
2. Protein scribble homolog, PDZ domain 3 (holdup construct) (domain or fragment, human, UniProt Q14160 1004-1093, looked up, also called SCRIB_3; source: E. coli, PDZome V.2 library, high-throughput expression) EIRLPRAGGPLGLSIVGGSDHSSHPFGVQEPGVFISKVLPRGLAARSGLRVGDRILAVNGQDVRDATHQEAVSALLRPCLELSLLVRRDP
3. Microtubule-associated serine/threonine-protein kinase 2, PDZ domain (holdup construct) (domain or fragment, human, UniProt Q6P0Q8 1104-1192, looked up, also called MAST2; source: E. coli, PDZome V.2 library, high-throughput expression) PIIIHRAGKKYGFTLRAIRVYMGDSDVYTVHHMVWHVEDGGPASEAGLRQGDLITHVNGEPVHGLVHTEVVELILKSGNKVAISTTPLE
4. Disks large homolog 1, PDZ domain 2 (holdup construct) (domain or fragment, human, UniProt Q12959 319-405, looked up, also called DLG1_2; source: E. coli, PDZome V.2 library, high-throughput expression) EIKLIKGPKGLGFSIAGGVGNQHIPGDNSIYVTKIIEGGAAHKDGKLQIGDKLLAVNNVCLEEVTHEEAVTALKNTSDFVYLKVAKP
5. Rho guanine nucleotide exchange factor 12, PDZ domain (holdup construct) (domain or fragment, human, UniProt Q9NZN5 72-151, looked up, also called ARHGEF12; source: E. coli, PDZome V.2 library, high-throughput expression) CVIIQKDDNGFGLTVSGDNPVFVQSVKEDGAAMRAGVQTGDRIIKVNGTLVTHSNHLEVVKLIKSGSYVALTVQGRPPGS

Response:
[0.55, 0.33, 0.72, 0.22, 0.25]
